system: CN0375-F725-PDC KRAS spheroid viability; experiment: Anticancer human tumor CN0375-F725-PDC patient-derived colon carcinoma cell line growth inhibition [KRAS2]; conditions: second compound 0.316 µM; first compound 0.0316 µM; stronger effect = lower value; spheroids with HUVEC and MSC;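 note: spheroids exposed to agents for 7 days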
The reader will find reported viability, T/C values listed item by item below.
Report the value in % with no unit label.

Solved entries:
| Compound | Assay Readout | Result Value |
| --- | --- | --- |
| CCNC(=O)CC1N=C(c2ccc(Cl)cc2)c2cc(OC)ccc2-n2c(C)nnc21 (stereo unspecified) + CNCc1ccccc1-c1csc(C(C)Nc2nc(C)nc3cc(OC)c(OC)cc23)c1 | viability, T/C | 92.5 |
| Cn1ncnc1[C@H]1c2n[nH]c(=O)c3cc(F)cc(c23)N[C@@H]1c1ccc(F)cc1 + C=CC(=O)N1CCN(c2nc(OCC3CCCN3C)nc3c2CCN(c2cccc4cccc(C)c24)C3)CC1CC#N | viability, T/C | 101 |
| CCN1CCN(Cc2ccc(Nc3ncc(F)c(-c4cc(F)c5nc(C)n(C(C)C)c5c4)n3)nc2)CC1 + CC1OCC2(CCN(c3cnc(Sc4ccnc(N)c4Cl)c(N)n3)CC2)C1N | viability, T/C | 67.3 |

Given the compound O=C(c1cc(Cc2n[nH]c(=O)c3ccccc23)ccc1F)N1CCN(C(=O)C2CC2)CC1 + C=CC(=O)N1CCN(c2nc(=O)n(-c3c(C)ccnc3C(C)C)c3nc(-c4c(O)cccc4F)c(F)cc23)C(C)C1 and test system CN0375-F725-PDC KRAS spheroid viability, the measured viability, T/C is 109

Given the compound CCN1CCN(Cc2ccc(Nc3ncc(F)c(-c4cc(F)c5nc(C)n(C(C)C)c5c4)n3)nc2)CC1 + CNCc1ccccc1-c1csc(C(C)Nc2nc(C)nc3cc(OC)c(OC)cc23)c1 and test system CN0375-F725-PDC KRAS spheroid viability, the measured viability, T/C is 78.7

Given the compound CN(C)C/C=C/C(=O)Nc1cc2c(Nc3ccc(F)c(Cl)c3)ncnc2cc1O[C@H]1CCOC1 + C=CC(=O)N1CCN(c2nc(OCC3CCCN3C)nc3c2CCN(c2cccc4cccc(C)c24)C3)CC1CC#N and test system CN0375-F725-PDC KRAS spheroid viability, the measured viability, T/C is 73.4
